Test system: PXR:RXRa (NR concentration 270 nM, RXRa partner concentration 90 nM)
Experiment: PBM binding z-score (relative to random genomic background probes); higher = stronger binding; sequences stand for … in GC…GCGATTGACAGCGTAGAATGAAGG
Exercise: state measured PBM binding z-score for each of the sequences provided.
Give bare numbers.

Answered cases to consult:
TCATATAGGTAAAAGGTGCAAGTCGGTGTGGTAA | 0.954
CGTCCCAGGTCAAAGGTCAGTGAAGAGATGACGG | 6.8

// batch mode: one PBM binding z-score value per listed entry
1. GGAACGAGGGCAAAGTTAATAGCATCTGTCGACG
2. CGTCCAAGGTAAAGGTCAGTGAAAGAGACTCGAA
3. GCGACTGGGGCAAAGCAGTTTACCATAAGGTTGG
4. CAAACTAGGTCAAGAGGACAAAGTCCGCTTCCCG
5. AGAATGAGGTTATTAAGATTAGGGAATTGCGGTC
6. GCGACTGGGGCAAAGCAGGGTACCATAAGGTTGG
7. CCTAACAGGCCAGGGTCACTCAAGCATTTCGCTT

A:
[1.19, 3.05, 0.655, 1.37, 1.02, -0.102, 2.58]

====

Tested on: RARa:RXR (NR concentration 270 nM, RXRa partner concentration 90 nM)
Experiment: PBM binding z-score (relative to random genomic background probes); higher = stronger binding; sequences stand for … in GC…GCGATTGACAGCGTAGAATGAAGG
Tag: Criterion met if measured PBM binding z-score is not below 2, Criterion not met if it is.

ATCTCTAGGTAGAAGTTCAGTGAATCCCGAGGAT | Criterion not met

Q: Evaluate `ATCGAAAGGTCGACGAGGTGAGTATACACCGTTT` : PBM binding z-score at minimum 2?
A: Criterion met

Q: Threshold query (PBM binding z-score >= 2) on `TCTCGGAGGACACGAAATGTCAGAGCTCGACATC`
A: Criterion not met

Q: Given `CAAACTAGGTCAGGAGGTCAAAGTCCGCTTCCCG` , state whether its PBM binding z-score is at least 2.
A: Criterion met

Q: Is PBM binding z-score at least 2? Consider `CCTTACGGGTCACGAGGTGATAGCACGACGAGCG`
A: Criterion met

Q: hey, is PBM binding z-score for this one >= 2? `GCTGCTAGGTCAACTGATGGACAGCTAAAGCTCG`
A: Criterion not met

Q: Decide: is the reported value of PBM binding z-score for `CCTTGGAGGACAGAAGGTCAGAGCTGTCCGCTTT` equal to or greater than 2?
A: Criterion met

Q: Check if PBM binding z-score >= 2 (inclusive). Item: `CGTCCAAGGTCAATGCTTGGTCAGTGAAAGCATT`
A: Criterion met

Q: Tell me whether PBM binding z-score is at least 2 here: `AGTCAAAATTCAGGACGAGGTAACGTAAAGCACG`
A: Criterion not met

Q: Is PBM binding z-score at least 2? Consider `CCTAGTTGGTCAGGAGGTGACACACCGGATATGA`
A: Criterion not met

Q: Quick check, PBM binding z-score >= 2? `CATACAGGGTCAGCTATGCCAGAGTAGGGACGGC`
A: Criterion met

Q: Kindly determine if PBM binding z-score recorded for `TGAATCAGGTTAAAGATCAGGGAACGTGGCGTCG` is above or exactly 2.
A: Criterion not met

These entries and their values trace back to the supplement of paper PMC6555819.
